- test.system: alpha-1
- experiment.summary: radioligand binding assay, adrenergic alpha-1 receptor, [3H]prazosin
- condition.details: porcine cortical membranes, mean of two to five experiments in triplicate, read-out: Ki alpha1
- Source text: The investigation of receptor binding to the serotonin and adrenergic receptors was done according to a published procedure (Heindl, C. et al., Tetrahedron: Asymmetry (2003), 14, 3141-3152). […] The results of the binding experiments are summarized in Table 1 as mean values of two to five individual experiments each done in triplicate and expressed as Ki values in nM.
metric: Ki

Examples with their reported Ki follow.
{"compound": "Cc1ccc(CNCC2(F)CCN(C(=O)c3cc(Br)cs3)CC2)nc1 [Example E6]", "test.system": "alpha-1", "Ki": "501 to 5000 nM"}
{"compound": "Cc1ccc(CNCC2(F)CCN(C(=O)c3cc4ccccc4s3)CC2)nc1 [Example E23]", "test.system": "alpha-1", "Ki": "501 to 5000 nM"}
{"compound": "Cc1ccc(CNCC2(F)CCN(C(=O)c3cc4cc(Br)ccc4s3)CC2)nc1 [Example E24]", "test.system": "alpha-1", "Ki": "50 to 500 nM"}
{"compound": "CSc1ccc(C(=O)N2CCC(F)(CNCc3ccc(C)cn3)CC2)s1 [Example E12]", "test.system": "alpha-1", "Ki": "501 to 5000 nM"}
{"compound": "Cc1ccc(CNCC2(F)CCN(C(=O)c3cc4ccsc4s3)CC2)nc1 [Example E27]", "test.system": "alpha-1", "Ki": "501 to 5000 nM"}

// Ki value for Cc1ccc(CNCC2(F)CCN(C(=O)c3cccs3)CC2)nc1 [Example E1] : > 5000 nM

// Ki value for Cc1ccc(CNCC2(F)CCN(C(=O)c3sccc3Cl)CC2)nc1 [Example E3] : 501 to 5000 nM
